- Test system: 454973-116-R2-J3-PDC complex spheroid viability
- methodNotes: Anticancer human tumor 454973-116-R2-J3-PDC patient-derived pancreatic carcinoma cell line growth inhibition [POLQ]; active = viability on the fitted dose curve at most 10% of control; inactive = the rest
- testContext: second compound 0.316 µM; first compound 0.1 µM
Hi there, use one of these labels in your reply, thanks! active, inactive

Task: Assay outcome for O=C(c1cc(Cc2n[nH]c(=O)c3ccccc23)ccc1F)N1CCN(C(=O)C2CC2)CC1 + COC1C(OC(N)=O)C(O)C(Oc2ccc3c(O)c(NC(=O)c4ccc(O)c(CC=C(C)C)c4)c(=O)oc3c2C)OC1(C)C : what was it?
Result: inactive

Task: Assay outcome for CC1COCCN1c1cc(C2(S(C)(=N)=O)CC2)nc(-c2ccnc3[nH]ccc23)n1 (stereo not given) + COC1C(OC(N)=O)C(O)C(Oc2ccc3c(O)c(NC(=O)c4ccc(O)c(CC=C(C)C)c4)c(=O)oc3c2C)OC1(C)C : what was it?
Result: inactive

Task: Assay outcome for CC1COCCN1c1cc(-c2ccnn2C)c2ccnc(-c3ccn[nH]3)c2n1 (stereo not given) + Nc1ccc(C#CCN(C(=O)Cc2ncc(C(F)(F)F)cc2C(F)(F)F)c2ccc(F)cc2)nn1 : what was it?
Result: inactive

Task: Assay outcome for CCc1cc2c(N3CCc4c(cc(Cn5ccnc5)cc4-c4cn(C)nc4C(F)(F)F)C3=O)ccnc2c(OC)n1 + Nc1ccc(C#CCN(C(=O)Cc2ncc(C(F)(F)F)cc2C(F)(F)F)c2ccc(F)cc2)nn1 : what was it?
Result: inactive

Task: Assay outcome for CCc1c2c(nc3ccc(O)cc13)-c1cc3c(c(=O)n1C2)COC(=O)[C@]3(O)CC + Nc1ccc(C#CCN(C(=O)Cc2ncc(C(F)(F)F)cc2C(F)(F)F)c2ccc(F)cc2)nn1 : what was it?
Result: active

* * *

So I've got a bunch of molecules here, and I need their viability, T/C values.
- Tested on: 454973-116-R2-J3-PDC complex spheroid viability
- methodNotes: Anticancer human tumor 454973-116-R2-J3-PDC cell line growth inhibition [POLQ];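 note: spheroids exposed to drugs for seven days before measurement; percent viability relative to DMSO vehicle control wells taken as 100%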
- testContext: second compound 0.1 µM; first compound 0.00316 µM; active compounds read low
Note: unit % is implicit; provide only the numeric part.

Task: May I ask what viability, T/C has been recorded for Cn1ncnc1[C@H]1c2n[nH]c(=O)c3cc(F)cc(c23)N[C@@H]1c1ccc(F)cc1 + COC1C(OC(N)=O)C(O)C(Oc2ccc3c(O)c(NC(=O)c4ccc(O)c(CC=C(C)C)c4)c(=O)oc3c2C)OC1(C)C ?
Result: 105

Task: May I ask what viability, T/C has been recorded for CCc1c2c(nc3ccc(O)cc13)-c1cc3c(c(=O)n1C2)COC(=O)[C@]3(O)CC + COC1C(OC(N)=O)C(O)C(Oc2ccc3c(O)c(NC(=O)c4ccc(O)c(CC=C(C)C)c4)c(=O)oc3c2C)OC1(C)C ?
Result: 38.9

Task: May I ask what viability, T/C has been recorded for COc1cccc(OCCCN)c1-c1cc(Nc2cnc(C#N)cn2)n[nH]1 + Cc1cccc(N(C)C(=O)C2C(O)CCN2c2nc(C)cc(C(F)(F)F)c2C#N)c1 ?
Result: 95

Task: May I ask what viability, T/C has been recorded for COc1cccc(OCCCN)c1-c1cc(Nc2cnc(C#N)cn2)n[nH]1 + Nc1ccc(C#CCN(C(=O)Cc2ncc(C(F)(F)F)cc2C(F)(F)F)c2ccc(F)cc2)nn1 ?
Result: 101

Task: May I ask what viability, T/C has been recorded for CC[C@@]1(O)C(=O)OCc2c1cc1n(c2=O)Cc2cc3c(CN(C)C)c(O)ccc3nc2-1 + Cc1cccc(N(C)C(=O)C2C(O)CCN2c2nc(C)cc(C(F)(F)F)c2C#N)c1 ?
Result: 99.8
